- EXPERIMENTAL_SYSTEM: human DLL3 endogenously expressed on SHP77 and NCI-H82 cells (human) (UniProt Q9NYJ7)
- Sequence (Q9NYJ7 27-618): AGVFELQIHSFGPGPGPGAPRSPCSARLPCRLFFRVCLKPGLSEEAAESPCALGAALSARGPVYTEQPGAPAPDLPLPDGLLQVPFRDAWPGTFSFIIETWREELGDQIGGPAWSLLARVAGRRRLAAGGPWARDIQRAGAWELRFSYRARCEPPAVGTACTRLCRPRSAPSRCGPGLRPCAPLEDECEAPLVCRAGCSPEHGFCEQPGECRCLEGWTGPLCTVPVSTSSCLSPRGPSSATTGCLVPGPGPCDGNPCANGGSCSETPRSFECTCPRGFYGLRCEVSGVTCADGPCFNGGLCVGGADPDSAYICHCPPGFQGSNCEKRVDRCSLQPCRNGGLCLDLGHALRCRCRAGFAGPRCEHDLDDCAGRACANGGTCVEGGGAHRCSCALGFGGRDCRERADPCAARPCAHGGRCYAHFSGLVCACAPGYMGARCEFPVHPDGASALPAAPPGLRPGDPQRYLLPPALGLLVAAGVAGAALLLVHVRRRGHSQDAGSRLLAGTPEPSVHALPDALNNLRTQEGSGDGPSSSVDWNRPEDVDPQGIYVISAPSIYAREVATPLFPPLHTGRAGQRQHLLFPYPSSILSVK
- TEST_PROTOCOL: FACS SHP77 cells, 0.8 nM

BINDER	UNIT_ABBREV	MFI
mab016 scFv-hFc (Fc fusion, not shown: small tags and cut ends; a dimerising Fc or GST) scFv (part 1 of 2): DIVMTQSQKFMSTTIGDRVSITCKASQNVGTTVAWYQQKPGQSPNLLLYSTSNRFTGVPDRFTGSGSGTDFTLTITNMQSEDLADYFCQQYNNYPLTFGGGTKLEIK scFv (part 2 of 2): EVNLEESGGGLVQPGGSMKLSCVASGFAFSNFWMQWVRQSPEKGLEWVAQIRLKSDNYAAHYAESVKGRFTISRDDSKSSVYLQLNNLRAEDTGTYYCTQGNWVGFAYWGQGTLVTVSA	MFI	502
mab012 scFv-hFc (Fc fusion, not shown: small tags and cut ends; a dimerising Fc or GST) scFv (part 1 of 2): DVLMTQTPLSLPVSLGDQASISCRSSQSIVHSDGNTYLEWYLQKPGQSPKLLIYKVSNRFSGVPDRFSGSGSGTDFTLKISRVEAEDLGFYYCFQGSHVPFTFGSGTKLEIK scFv (part 2 of 2): QVQLQQSGPELVKPGASVKISCKASGYTFTDYYIHWVKQRPGQGLEWIGWTLPGSGSPYYNEKFKGKATLTVDKSSSTAYMLLSSLTSEDSAVYFCARWHYYYGSSYHFDYWGQGTTLTVSS	MFI	164

The measurements presented in this section are drawn from patent EP4786492A1.
